Hello, the source for this data is patent US5686454A, in case you need it.

Task for the reader: assign each of the following compounds its reported inhibition at 1 µM.
molecular target: uterine OT receptors (Rattus norvegicus, UniProt P70536); construct: crude membrane preparation of uteri; from tissue; host or cells: uterus of DES-treated rats, crude membranes; test: Radioligand binding: competition of [^3 H]oxytocin binding to rat uterine membranes; settings: read-out: % inhibition at 1000 nM
Sequence (P70536 whole entry): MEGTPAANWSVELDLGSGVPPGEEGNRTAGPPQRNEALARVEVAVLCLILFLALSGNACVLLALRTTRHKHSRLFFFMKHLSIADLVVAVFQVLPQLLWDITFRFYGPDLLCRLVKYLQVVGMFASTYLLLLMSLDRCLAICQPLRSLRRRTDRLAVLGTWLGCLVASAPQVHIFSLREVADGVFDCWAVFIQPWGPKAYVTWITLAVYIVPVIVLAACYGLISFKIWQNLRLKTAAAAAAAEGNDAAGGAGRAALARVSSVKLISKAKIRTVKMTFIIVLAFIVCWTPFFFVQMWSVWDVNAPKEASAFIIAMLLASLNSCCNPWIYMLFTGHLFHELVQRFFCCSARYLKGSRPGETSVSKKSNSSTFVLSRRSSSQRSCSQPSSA
// note: answer is a bare numeric in %

Incoming: // lookup inhibition at 1 µM for CCOC(=O)C(CC=C1CC2CCC1(CS(=O)(=O)N1CCN(c3ccccc3C)CC1)C2(C)C)(NC(C)=O)C(=O)OCC (stereo not shown)
Outgoing: 78

Incoming: // lookup inhibition at 1 µM for Cc1ccccc1N1CCN(S(=O)(=O)C[C@]23CC[C@H](CC2=CCN=[N+]=[N-])C3(C)C)CC1
Outgoing: 64

Incoming: // lookup inhibition at 1 µM for Cc1ccccc1N1CCN(C(=O)C2(CC(=O)O)C(=O)C3(C)CCC2C3(C)C)CC1 (stereo not shown)
Outgoing: 53

Incoming: // lookup inhibition at 1 µM for Cc1ccccc1N1CCN(S(=O)(=O)CC23CCC(CC24CO4)C3(C)C)CC1 (single isomer, unassigned)
Outgoing: 31

Incoming: // lookup inhibition at 1 µM for Cc1ccccc1N1CCN(S(=O)(=O)C[C@]23CC[C@H](CC2=CCNCC(C)C)C3(C)C)CC1
Outgoing: 44

Incoming: // lookup inhibition at 1 µM for Cc1ccccc1N1CCN(S(=O)(=O)C[C@]23CC[C@H](C[C@]2(O)CNCC(C)C)C3(C)C)CC1
Outgoing: 72

Incoming: // lookup inhibition at 1 µM for COC(=O)C1=C[C@H]2CC[C@]1(CS(=O)(=O)N1CCN(c3ccccc3C)CC1)C2(C)C
Outgoing: 38
